These measurements were taken from patent EP1538159A1.

Target: hMC-4R (Homo sapiens)
Construct: expressed in transfected cells; host or cells: HEK293
Sequence (P32245 whole entry): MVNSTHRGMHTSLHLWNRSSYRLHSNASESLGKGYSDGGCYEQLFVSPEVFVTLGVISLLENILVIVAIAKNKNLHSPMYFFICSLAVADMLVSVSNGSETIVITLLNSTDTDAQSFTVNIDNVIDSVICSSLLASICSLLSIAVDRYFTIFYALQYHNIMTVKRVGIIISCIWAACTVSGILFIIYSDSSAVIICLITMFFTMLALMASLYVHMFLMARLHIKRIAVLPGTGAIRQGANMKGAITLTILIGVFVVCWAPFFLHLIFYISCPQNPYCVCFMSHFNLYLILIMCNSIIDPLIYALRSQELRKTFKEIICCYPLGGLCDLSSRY
Experiment: Functional cellular cAMP assay (fluorescence polarization)
Type: cell-based
Settings: cAMP production compared to stimulation with NDP-alpha-MSH
Items are presented alongside their recorded % activation.
# value in %; strip the unit string

Below: 4 molecules and their reported % activation.
| MOLECULE | % activation, % |
| --- | --- |
| NC1c2ccccc2CCC1C(=O)N[C@H](Cc1ccc(Cl)cc1)C(=O)N1CCN(c2ccccc2CN2CCCC2=O)CC1 (single isomer, unassigned) | 91 |
| NC1c2ccccc2CCC1C(=O)N[C@H](Cc1ccc(Cl)cc1)C(=O)N1CCC(c2ccccc2CN2CCCC2=O)CC1 (single isomer, unassigned) [Example 2B] | 90 |
| O=C(N[C@H](Cc1ccc(Cl)cc1)C(=O)N1CCC(c2ccccc2CN2CCCC2=O)CC1)C1CNC1 [WO030009847 Example 153, reference compound] | 107 |
| CS(=O)(=O)Nc1ccccc1N1CCN(C(=O)[C@@H](Cc2ccc(Cl)cc2)NC(=O)[C@H]2Cc3ccccc3CN2)CC1 [WO030009850 Example 1, reference compound] | 96 |

Now for a further molecule.
Data request: Notebook entry, hMC-4R (Homo sapiens) assay: % activation of O=C(N[C@H](Cc1ccc(Cl)cc1)C(=O)N1CCN(c2ccccc2CN2CCCC2=O)CC1)C1CNC1 [WO030009850 Example 166, reference compound] = ?
Data returned: 90
